# target.of.assay: CCK-B (UniProt H0VZC5)
# Construct: IC50 (nM) for CCK-B
# Sequence (H0VZC5 1-426): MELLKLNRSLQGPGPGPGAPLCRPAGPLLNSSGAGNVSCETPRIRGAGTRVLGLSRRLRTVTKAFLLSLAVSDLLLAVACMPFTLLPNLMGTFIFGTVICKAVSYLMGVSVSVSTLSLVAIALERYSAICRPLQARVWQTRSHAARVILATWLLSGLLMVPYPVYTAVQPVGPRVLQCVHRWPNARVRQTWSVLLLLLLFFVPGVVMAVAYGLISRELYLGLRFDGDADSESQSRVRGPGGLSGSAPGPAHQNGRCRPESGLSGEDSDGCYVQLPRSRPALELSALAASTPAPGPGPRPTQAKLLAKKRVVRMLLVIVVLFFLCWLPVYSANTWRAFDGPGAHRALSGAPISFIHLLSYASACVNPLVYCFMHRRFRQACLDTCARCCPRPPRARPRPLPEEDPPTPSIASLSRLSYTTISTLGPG
# assay.overview: Receptor binding studies, CCK-B
Entries and their measured IC50 follow.
quantity.kind: IC50 (nM)

>>> value_measured("CCC1=NC(NC(=O)Nc2cccc(C)c2)C(=O)N(CC(=O)C2CCCCC2)c2c(C)cccc21 (racemic) [(B)]")
1.6
>>> value_measured("Cc1cccc(NC(=O)NC2N=C(C3CC3)c3cccc(C)c3N(CC(=O)C3CCCCC3)C2=O)c1 (racemic) [(D)]")
1.1
>>> value_measured("CC1=NC(NC(=O)Nc2cccc(C)c2)C(=O)N(CC(=O)C2CCCCC2)c2c(C)cccc21 (racemic) [Compound (A)]")
3.7
>>> value_measured("CCC1=N[C@@H](NC(=O)Nc2cccc(C)c2)C(=O)N(CC(=O)C2CCCCC2)c2c(C)cccc21 [(C)]")
1
